- Tested on: circulating lymphocytes
- experiment-summary: Lymphopenia assay: circulating lymphocytes after oral gavage
- Format: in vivo
- condition-details: Mus musculus, Lymphocyte, po, C57bl/6 male mice, oral gavage 0.5 and 5 mg/kg in 30% HPCD, blood 5 and 24 hours after administration
quantity-name: ED50

• CC(C)(C)[C@H]1CC[C@H](Oc2ccc3cc([C@@](C)(N)CO)ccc3c2F)CC1 = < 0.5 mg/kg
• Cc1c(O[C@H]2CC[C@H](C(C)(C)C)CC2)ccc2cc([C@@](C)(N)CO)ccc12 = < 0.5 mg/kg
• CCCCC1CCC(Oc2ccc3cc([C@@](C)(N)CO)ccc3c2)CC1 (some centres unmarked) = < 0.5 mg/kg
• CC(C)(C)[C@H]1CC[C@H](Oc2ccc3cc([C@@](C)(N)CO)ccc3c2-c2cncnc2)CC1 = > 5 mg/kg
• NC(CO)(CO)c1ccc2cc(Oc3cccc(OCCc4ccccc4)c3)ccc2c1 = < 0.5 mg/kg
• CC(N)(CCC(=O)O)c1ccc2c(C(F)(F)F)c(O[C@H]3CC[C@H](C(C)(C)C)CC3)ccc2c1 (some centres unmarked) = 0.5 to 5 mg/kg
• NC(CO)(CO)c1ccc2cc(Oc3ccc(Oc4ccccc4)cc3)ccc2c1 = < 0.5 mg/kg
• NC(CO)(CO)c1ccc2cc(Oc3cccc(OCCCC(F)(F)F)c3)ccc2c1 = < 0.5 mg/kg
• C[C@](N)(CO)c1ccc2cc(OC3CCC(C4CCCCC4)CC3)ccc2c1 (some centres unmarked) = 0.5 to 5 mg/kg
• C[C@](N)(CO)c1ccc2cc(OC3CCC(C4CCCC4)CC3)ccc2c1 (some centres unmarked) = 0.5 to 5 mg/kg
• NC(CO)(CO)c1ccc2cc(Sc3cccc(OCc4ccccc4)c3)ccc2c1 = < 0.5 mg/kg
• CC(F)(F)[C@H]1CC[C@@H](Oc2ccc3cc([C@@](C)(N)CO)ccc3c2)CC1 = > 5 mg/kg
• CC(C)Oc1ccc(Oc2ccc3cc([C@@](C)(N)CO)ccc3c2)cc1 = < 0.5 mg/kg
• CC(C)(C)[C@H]1CC[C@H](Oc2ccc3cc([C@@](C)(N)CO)ccc3c2-c2ccc(Cl)cc2)CC1 = > 5 mg/kg
• C[C@](N)(CO)c1ccc2c(C(F)(F)F)c(O[C@H]3CC[C@H](C4CCCC4)CC3)ccc2c1 = > 5 mg/kg
• C[C@](N)(CO)c1ccc2cc(Oc3ccc(C(F)(F)F)cc3)ccc2c1 = > 5 mg/kg
• CCc1ccc(Oc2ccc3cc([C@@](C)(N)CO)ccc3c2)cc1 = 0.5 to 5 mg/kg

Cited source: patent US8269043B2
